The reported numbers originate from patent US9249147B2.

# SUBJECT_OF_TEST: IGF1R (Homo sapiens)
# Construct: 6×His- or GST-tagged kinase domain fragments of the corresponding RTKs expressed in baculovirus system; host or cells: baculovirus system
# Sequence (P08069 999-1274 limits assumed): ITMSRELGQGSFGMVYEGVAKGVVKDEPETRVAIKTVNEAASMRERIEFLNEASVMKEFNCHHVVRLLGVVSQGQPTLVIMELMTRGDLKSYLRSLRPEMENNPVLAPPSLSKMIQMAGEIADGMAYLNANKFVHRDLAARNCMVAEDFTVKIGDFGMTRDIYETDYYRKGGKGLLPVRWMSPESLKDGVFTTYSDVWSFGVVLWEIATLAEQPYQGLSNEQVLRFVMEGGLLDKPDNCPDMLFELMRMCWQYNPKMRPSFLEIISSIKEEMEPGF
# METHOD: IGF1R kinase assay
# Type: biochemical
# PROTOCOL_CONDITIONS: Table 1; read-out: IGF1R IC50
RESULT_TYPE: IC50

1) CC(Cc1ccc(-c2ccccc2)s1)Nc1cc[nH]c(=O)c1-c1nc2cc3c(cc2[nH]1)C(=O)N(CCCN1CCCC1)C3 (stereo not drawn)    > 1000 nM
2) Cc1ccccc1C[C@H](C)Nc1cc[nH]c(=O)c1-c1nc2cc3c(cc2[nH]1)C(=O)N(CCN1CCCC1)C3=O    > 1000 nM
3) C[C@H](Cc1cccs1)Nc1cc[nH]c(=O)c1-c1nc2cc3c(c(Cl)c2[nH]1)C(=O)N(C1CCN(C)CC1)C3    100 to 250 nM

Give IC50 for each of the items listed below.
1. COc1ccc(C)c(C[C@H](C)Nc2cc[nH]c(=O)c2-c2nc3cc4c(cc3[nH]2)CN(CCN2CCCC2)C4=O)c1
2. Cc1c(F)cc(F)cc1C[C@H](C)Nc1cc[nH]c(=O)c1-c1nc2cc3c(cc2[nH]1)CN(CCN1CCCC1)C3=O
3. C[C@@H](Cc1cccs1)Nc1cc[nH]c(=O)c1-c1nc2cc3c(cc2[nH]1)C(=O)N(C1CCN(CCS(C)(=O)=O)CC1)C3
4. CC(Cc1cccs1)N(C)c1cc[nH]c(=O)c1-c1nc2cc3c(cc2[nH]1)C(=O)N(CCCN1CCCC1)C3 (stereo not drawn)
5. C[C@@H](Cc1sccc1Cl)Nc1cc[nH]c(=O)c1-c1nc2cc3c(cc2[nH]1)C(=O)N(C[C@H](C)N(C)C)C3
6. C[C@H](Cc1cccs1)Nc1cc[nH]c(=O)c1-c1nc2c(Cl)c3c(cc2[nH]1)C(=O)N(C1CCN(C)CC1)C3=O
7. Cc1ccc(F)cc1C[C@H](C)Nc1cc[nH]c(=O)c1-c1nc2cc3c(cc2[nH]1)C(=O)N(CCN1CCCC1)C3 [drawing 303]
8. Cc1ccc(F)cc1C[C@H](C)Nc1cc[nH]c(=O)c1-c1nc2cc3c(cc2[nH]1)C(=O)N(CCN(C)C)C3=O

Output line:
1: > 1000 nM; 2: 250 to 1000 nM; 3: 100 to 250 nM; 4: > 1000 nM; 5: 250 to 1000 nM; 6: > 1000 nM; 7: 100 to 250 nM; 8: 100 to 250 nM

# batch size: 4; output IC50 per entry
1. C[C@@H](Cc1c(F)c(F)cc(F)c1F)Nc1cc[nH]c(=O)c1-c1nc2cc3c(cc2[nH]1)CN(CCN1CCCC1)C3=O [drawing 345]
2. Cc1cc(C)c(CC(C)Nc2cc[nH]c(=O)c2-c2nc3cc4c(cc3[nH]2)C(=O)N(CCCN2CCCC2)C4)s1 (stereo not drawn)
3. C[C@@H](Cc1sccc1Cl)Nc1cc[nH]c(=O)c1-c1nc2cc3c(cc2[nH]1)C(=O)N([C@@H](C)CN(C)C)C3
4. Cc1ccc(C(F)(F)F)cc1C[C@H](C)Nc1cc[nH]c(=O)c1-c1nc2cc3c(cc2[nH]1)CN(CCN1CCOCC1)C3=O

Output line:
> 1000 nM
100 to 250 nM
100 to 250 nM
> 1000 nM

Here are 5 molecules. What values of IC50 were reported for them?
1. CC(Cc1cccs1)Nc1cc[nH]c(=O)c1-c1nc2cc3c(cc2[nH]1)C(=O)N(C1CCN(C)CC1)C3=O (stereo not drawn)
2. CCN1CCC[C@H]1CN1Cc2cc3nc(-c4c(N[C@@H](C)Cc5sccc5C)cc[nH]c4=O)[nH]c3cc2C1=O
3. Cc1ccsc1C[C@H](C)Nc1cc[nH]c(=O)c1-c1nc2cc3c(cc2[nH]1)CN(CCN1CCC[C@@H]1C)C3=O
4. Cc1ccsc1C[C@H](C)Nc1cc[nH]c(=O)c1-c1nc2cc3c(cc2[nH]1)C(=O)N(CCN(C)CCS(C)(=O)=O)C3=O
5. C[C@@H](Cc1sccc1Cl)Nc1cc[nH]c(=O)c1-c1nc2cc3c(cc2[nH]1)C(=O)N([C@@H](C)CN(C)C)C3=O

Output line:
> 1000 nM
100 to 250 nM
250 to 1000 nM
> 1000 nM
> 1000 nM

Entry under test: C[C@@H](Cc1cccs1)Nc1cc[nH]c(=O)c1-c1nc2cc3c(cc2[nH]1)C(=O)N(C1CCN(C)CC1)C3 . Its IC50 was 10 to 100 nM

###

Hi there, I'd appreciate the recorded IC50 for every entry that follows.
# SUBJECT_OF_TEST: ALK (Homo sapiens)
# Sequence (Q9UM73 with tags, fused parts or gaps): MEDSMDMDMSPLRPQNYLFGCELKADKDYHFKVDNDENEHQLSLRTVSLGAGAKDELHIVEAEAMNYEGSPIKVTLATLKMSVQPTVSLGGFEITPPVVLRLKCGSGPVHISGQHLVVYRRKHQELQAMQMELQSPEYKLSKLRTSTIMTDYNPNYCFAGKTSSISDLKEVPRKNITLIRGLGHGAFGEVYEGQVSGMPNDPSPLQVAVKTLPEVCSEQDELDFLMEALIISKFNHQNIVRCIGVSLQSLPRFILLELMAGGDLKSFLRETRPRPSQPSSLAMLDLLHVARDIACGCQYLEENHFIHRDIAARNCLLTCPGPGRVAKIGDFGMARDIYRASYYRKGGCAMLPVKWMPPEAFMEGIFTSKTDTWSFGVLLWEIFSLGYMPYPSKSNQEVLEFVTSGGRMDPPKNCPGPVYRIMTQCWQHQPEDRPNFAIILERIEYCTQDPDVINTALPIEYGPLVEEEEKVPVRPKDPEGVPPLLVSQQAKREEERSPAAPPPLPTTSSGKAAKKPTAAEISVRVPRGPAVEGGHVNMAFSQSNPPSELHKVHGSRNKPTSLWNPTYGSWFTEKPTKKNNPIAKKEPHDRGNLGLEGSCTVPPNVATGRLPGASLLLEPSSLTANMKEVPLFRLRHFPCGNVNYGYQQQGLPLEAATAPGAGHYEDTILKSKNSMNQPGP
# METHOD: ALK kinase assay (Kinase-Glo / AlphaScreen, purified NPM-ALK);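 note: recombinant baculovirus-expressed ALK kinase domain, activity read either as leftover ATP by Kinase-Glo luminescence or as poly(Glu-Tyr) phosphorylation by anti-phosphotyrosine AlphaScreen proximity signal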
# Assay type: biochemical
# Parameters: fused to the complete intracytoplasmic portion of ALK containing the functional tyrosine kinase domain; 6xHis; made in house; host or cells: insect cells; the other entry of the earlier key: NPM1 (P06748, Nucleophosmin)
# PROTOCOL_CONDITIONS: Table 1; read-out: ALK IC50

Illustrative cases are given below, each with its answer.
1) C[C@H](CN1C(=O)c2cc3nc(-c4c(N[C@@H](C)Cc5sccc5Cl)cc[nH]c4=O)[nH]c3cc2C1=O)N(C)C    10 to 100 nM
2) C[C@@H](Cc1cccs1)Nc1cc[nH]c(=O)c1-c1nc2cc3c(cc2[nH]1)C(=O)N(CCN1CCCC1)C3    250 to 1000 nM
3) Cc1ccc(F)cc1C[C@H](C)Nc1cc[nH]c(=O)c1-c1nc2cc3c(cc2[nH]1)CN(CCN1CCC[C@H]1C)C3=O [drawing 339]    10 to 100 nM
4) O=C1c2cc3nc(-c4c(NC[C@@H](O)c5cccc(Cl)c5)cc[nH]c4=O)[nH]c3cc2C(=O)N1CCN1CCCC1    10 to 100 nM
5) C[C@H](Cc1cccs1)Nc1cc[nH]c(=O)c1-c1nc2cc3c(c(Cl)c2[nH]1)C(=O)N(C1CCN(C)CC1)C3    250 to 1000 nM
6) COc1ccc(F)cc1C[C@H](C)Nc1cc[nH]c(=O)c1-c1nc2cc3c(cc2[nH]1)CN(CCN1CCOCC1)C3=O    100 to 250 nM
7) C[C@@H](Cc1cc(F)ccc1Cl)Nc1cc[nH]c(=O)c1-c1nc2cc3c(cc2[nH]1)CN(CCN1CCCC1)C3=O    100 to 250 nM

Now let's try a different one.
Memo: C[C@@H](Cc1sccc1Cl)Nc1cc[nH]c(=O)c1-c1nc2cc3c(cc2[nH]1)C(=O)N(C[C@H](C)N(C)C)C3=O , reported IC50: 10 to 100 nM

###

I'd be grateful if you could share measured IC50 for these entries.
# SUBJECT_OF_TEST: IRK (Homo sapiens)
# Construct: 6×His- or GST-tagged kinase domain fragments of the corresponding RTKs expressed in baculovirus system; host or cells: baculovirus system
# Sequence (P06213 1023-1298 limits assumed): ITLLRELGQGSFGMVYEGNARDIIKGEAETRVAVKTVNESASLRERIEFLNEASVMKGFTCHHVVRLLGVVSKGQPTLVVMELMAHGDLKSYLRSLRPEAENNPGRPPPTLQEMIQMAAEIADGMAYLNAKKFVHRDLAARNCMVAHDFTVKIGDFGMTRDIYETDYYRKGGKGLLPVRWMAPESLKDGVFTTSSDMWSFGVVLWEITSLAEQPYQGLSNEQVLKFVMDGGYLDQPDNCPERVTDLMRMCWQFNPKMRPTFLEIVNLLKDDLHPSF
# METHOD: IRK (insulin receptor kinase) assay
# Type: biochemical
# PROTOCOL_CONDITIONS: Table 1; read-out: IRK IC50

Before answering, review these 10 worked examples.
1) Cc1ccc(Cl)cc1C[C@H](C)Nc1cc[nH]c(=O)c1-c1nc2cc3c(cc2[nH]1)CN(CCN1CCCC1)C3=O    100 to 250 nM
2) C[C@H](Cc1cccs1)Nc1cc[nH]c(=O)c1-c1nc2cc3c(cc2[nH]1)C(=O)N(CCCN1CCCC1)C3    250 to 1000 nM
3) Cc1ccc(F)cc1C[C@H](C)Nc1cc[nH]c(=O)c1-c1nc2cc3c(cc2[nH]1)CN(CCN(C)C)C3=O [drawing 316]    100 to 250 nM
4) CC(Cc1ccccc1F)Nc1cc[nH]c(=O)c1-c1nc2cc3c(cc2[nH]1)C(=O)N(CCCN1CCCC1)C3 (stereo not shown)    > 1000 nM
5) Cc1ccc(C(F)(F)F)cc1C[C@H](C)Nc1cc[nH]c(=O)c1-c1nc2cc3c(cc2[nH]1)CN(CCN1CCOCC1)C3=O    > 1000 nM
6) Cc1c(F)cccc1C[C@H](C)Nc1cc[nH]c(=O)c1-c1nc2cc3c(cc2[nH]1)C(=O)N(CCN1CCCC1)C3    100 to 250 nM
7) C[C@@H](Cc1cccs1)Nc1cc[nH]c(=O)c1-c1nc2cc3c(cc2[nH]1)C(=O)N(C1CCN(CCS(C)(=O)=O)CC1)C3    250 to 1000 nM
8) C[C@H](Cc1cccs1)Nc1cc[nH]c(=O)c1-c1nc2cc3c(cc2[nH]1)C(=O)N(CCCN1CCCC1)C3=O    > 1000 nM
9) Cc1ccc(F)cc1C[C@H](C)Nc1cc[nH]c(=O)c1-c1nc2c(C)c3c(cc2[nH]1)CN(CCN1CCCC1)C3=O [drawing 321]    100 to 250 nM
10) Cc1ccc(F)cc1C[C@H](C)Nc1cc[nH]c(=O)c1-c1nc2cc3c(cc2[nH]1)CN(CCN1CCC[C@H]1C)C3=O [drawing 339]    250 to 1000 nM

Can you give me IC50 for all of these, one by one?
1. Cc1ccc(F)cc1C[C@H](C)Nc1cc[nH]c(=O)c1-c1nc2cc3c(cc2[nH]1)C(=O)N(CCN(C)C)C3=O
2. C[C@@H](Cc1cc(F)ccc1Cl)Nc1cc[nH]c(=O)c1-c1nc2cc3c(cc2[nH]1)CN(CCN1CCCC1)C3=O
3. C[C@@H](Cc1cccs1)Nc1cc[nH]c(=O)c1-c1nc2cc3c(cc2[nH]1)C(=O)N(CCN1CCCC1)C3
4. O=C1c2cc3nc(-c4c(NC[C@@H](O)c5cccc(Cl)c5)cc[nH]c4=O)[nH]c3cc2C(=O)N1CCN1CCCC1
5. COc1ccc(C)c(C[C@H](C)Nc2cc[nH]c(=O)c2-c2nc3cc4c(cc3[nH]2)CN(CCN2CCCC2)C4=O)c1
6. Cc1ccsc1C[C@H](C)Nc1cc[nH]c(=O)c1-c1nc2cc3c(cc2[nH]1)CN(CCN1CCCC1)C3=O

Output line:
> 1000 nM
250 to 1000 nM
100 to 250 nM
100 to 250 nM
250 to 1000 nM
10 to 100 nM

For each of the items listed, what is its IC50?
1. C[C@@H](Cc1cccs1)Nc1cc[nH]c(=O)c1-c1nc2cc3c(cc2[nH]1)C(=O)N(CCCN1CCCC1)C3 [drawing 259]
2. Cc1ccsc1C[C@H](C)Nc1cc[nH]c(=O)c1-c1nc2cc3c(cc2[nH]1)CN(CCN1CCC[C@H]1C)C3=O

Output line:
1: 100 to 250 nM; 2: 100 to 250 nM

Hey, can you go through the list below and give me IC50 for every item?
1. Cc1ccc(C(F)(F)F)cc1C[C@H](C)Nc1cc[nH]c(=O)c1-c1nc2cc3c(cc2[nH]1)CN(CCN(C)C)C3=O
2. Cc1ccc(F)cc1C[C@H](C)Nc1cc[nH]c(=O)c1-c1nc2cc3c(cc2[nH]1)CN(CCN1CCOCC1)C3=O
3. Cc1cc(F)ccc1C[C@H](C)Nc1cc[nH]c(=O)c1-c1nc2cc3c(cc2[nH]1)C(=O)N(CCN1CCCC1)C3
4. C[C@H](Nc1cc[nH]c(=O)c1-c1nc2cc3c(cc2[nH]1)C(=O)N(CCCN1CCCC1)C3)[C@H](O)c1ccccc1

Output line:
250 to 1000 nM
> 1000 nM
250 to 1000 nM
250 to 1000 nM
